details: in n-propanol, 303.15 K
experimental readout: solubility (mole fraction)
I only need the number, thanks.

[Q] Need solubility (mole fraction) of "Nc1cc(Cl)ccc1[N+](=O)[O-]" , thanks.
[A] 0.0284

---

details: in acetonitrile, 308.15 K
experimental readout: solubility (mole fraction)

[Q] Need solubility (mole fraction) of "Nc1cc(Cl)ccc1[N+](=O)[O-]" , thanks.
[A] 0.0751

---

details: in n-butanol, 303.15 K
experimental readout: solubility (mole fraction)
I only need the number, thanks.

[Q] Need solubility (mole fraction) of "Nc1cc(Cl)ccc1[N+](=O)[O-]" , thanks.
[A] 0.0311

---

details: in isobutanol, 323.15 K
experimental readout: solubility (mole fraction)
I only need the number, thanks.

[Q] Need solubility (mole fraction) of "Nc1cc(Cl)ccc1[N+](=O)[O-]" , thanks.
[A] 0.0444

The measurements presented in this section are drawn from BigSolDB 2.1.
